System: Escherichia coli
Assay: Inhibition of Escherichia coli RNA polymerase at 200 uM relative to control
MEASURED_PROPERTY: inhibition (%)
Provide the reading as a plain figure in %.

Please fill in: inhibition reported for `COc1ccc(-n2c3cssc-3c(NC(=O)NCCOC(=O)CCCCC(=O)c3c(O)cc(C)oc3=O)c2=O)c(OC)c1` = 36.5

inhibition for `COc1ccc(-n2c3cssc-3c(NC(=O)N(C)CCOC(=O)CCCCCCC(=O)c3c(O)cc(C)oc3=O)c2=O)c(OC)c1` is 32.1

// field: inhibition; key: `COc1ccc(-n2c3cssc-3c(NC(=O)N(C)CCOC(=O)CCCC(=O)c3c(O)cc(C)oc3=O)c2=O)c(OC)c1` ; value = 23.8

For record `COc1ccc(-n2c3cssc-3c(NC(=O)NCCOC(=O)CCCC(=O)c3c(O)cc(C)oc3=O)c2=O)c(OC)c1` the listed inhibition is 25.3

Lab note: `COc1ccc(-n2c3cssc-3c(NC(=O)CCCC(=O)c3c(O)cc(C)oc3=O)c2=O)c(OC)c1` gave inhibition of 35.4

Lookup result for `COc1ccc(-n2c3cssc-3c(NC(=O)CCCCCCC(=O)c3c(O)cc(C)oc3=O)c2=O)c(OC)c1` ; measured inhibition: 43.4

Kindly note the recorded inhibition for `COc1ccc(-n2c3cssc-3c(NC(=O)CCCCC(=O)c3c(O)cc(C)oc3=O)c2=O)c(OC)c1` , which is 42.4

The compound listed as `COc1ccc(-n2c3cssc-3c(NC(=O)OCCOC(=O)CCCC(=O)c3c(O)cc(C)oc3=O)c2=O)c(OC)c1` has a reported inhibition of 41.3

====

Tested on: Staphylococcus aureus
Experiment: Antibacterial activity against Staphylococcus aureus ATCC 29213 assessed as bacterial growth inhibition
Type: functional
MEASURED_PROPERTY: MIC (µg/mL)
Kindly provide the numeric value in µg/mL only, without the unit symbol.

Observed MIC on Staphylococcus aureus, entry `COc1ccc(-n2c3cssc-3c(NC(=O)N(C)CCOC(=O)CCCCC(=O)c3c(O)cc(C)oc3=O)c2=O)c(OC)c1` , equals 2

// returns MIC for `COc1ccc(-n2c3cssc-3c(NC(=O)NCCOC(=O)CCCC(=O)c3c(O)cc(C)oc3=O)c2=O)c(OC)c1` with Staphylococcus aureus; value = 32

Lab entry: Staphylococcus aureus assay, compound `COc1ccc(-n2c3cssc-3c(NC(=O)N(C)CCOC(=O)CCCC(=O)c3c(O)cc(C)oc3=O)c2=O)c(OC)c1` , MIC = 2

Considering `COc1ccc(-n2c3cssc-3c(NC(=O)OCCOC(=O)CCCCCCC(=O)c3c(O)cc(C)oc3=O)c2=O)c(OC)c1` , its MIC with Staphylococcus aureus was recorded as 1

====

System: Staphylococcus aureus
Assay: Antibacterial activity against Staphylococcus aureus ATCC 29213 assessed as bacterial growth inhibition
Type: functional
Exercise: for every item that follows, state its recorded MIC.
The reply should be a number in µg/mL, with the unit left off.

Short answer for `COc1ccc(-n2c3cssc-3c(NC(=O)CCCC(=O)c3c(O)cc(C)oc3=O)c2=O)c(OC)c1` : MIC was 2

The compound `COc1ccc(-n2c3cssc-3c(NC(=O)OCCOC(=O)CCCCC(=O)c3c(O)cc(C)oc3=O)c2=O)c(OC)c1` showed MIC equal to 2

Memo: `COc1ccc(-n2c3cssc-3c(NC(=O)CCCCC(=O)c3c(O)cc(C)oc3=O)c2=O)c(OC)c1` , reported MIC: 2
